// reported protein stability index for each item listed
B1: SNAP91 (parent)
chain: FAAPSPATTASPAKVDSSGVIDLF

- Variants of: B1
- assay info: protein stability index of a GFP-peptide fusion (GPS, HEK-293T) (PSI 1-6); higher = more stable;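 further: lentivirally expressed fusions sorted by FACS into six bins by GFP to DsRed ratio, PSI derived from sequencing read proportions per bin multiplied by bin number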
- details: c terminus: a fixed tail appended

Check out these entries, answers already filled in.
# input Query: protein stability index; subject: `D16G`
# output 2.11

# input Do the same for `T9D` please
# output 3.22

# input Do the same for `A10H` please
# output 2.29

# input Do the same for `P6N` please
# output 2.94

# input Do the same for `V20Q` please
# output 2.96

# input Do the same for `D16I` please
# output 1.99

# input Do the same for `T9L` please
# output 2.25

# input Do the same for `L23E` please
# output 4.4

# input Do the same for `A3R` please
# output 2.12

# input Do the same for `S17A` please
# output 2.55

More entries:
# input Query: protein stability index; subject: `D16E`
# output 2.17

# input Do the same for `T9C` please
# output 2.43

# input Do the same for `I21D` please
# output 3.96

# input Do the same for `I21S` please
# output 3.37

# input Do the same for `A2M` please
# output 2.27
